assay.target: PCSK9 (Homo sapiens, UniProt Q8NBP7, G670E/V474I)
Sequence (Q8NBP7 with tags, fused parts or gaps V474I/G670E): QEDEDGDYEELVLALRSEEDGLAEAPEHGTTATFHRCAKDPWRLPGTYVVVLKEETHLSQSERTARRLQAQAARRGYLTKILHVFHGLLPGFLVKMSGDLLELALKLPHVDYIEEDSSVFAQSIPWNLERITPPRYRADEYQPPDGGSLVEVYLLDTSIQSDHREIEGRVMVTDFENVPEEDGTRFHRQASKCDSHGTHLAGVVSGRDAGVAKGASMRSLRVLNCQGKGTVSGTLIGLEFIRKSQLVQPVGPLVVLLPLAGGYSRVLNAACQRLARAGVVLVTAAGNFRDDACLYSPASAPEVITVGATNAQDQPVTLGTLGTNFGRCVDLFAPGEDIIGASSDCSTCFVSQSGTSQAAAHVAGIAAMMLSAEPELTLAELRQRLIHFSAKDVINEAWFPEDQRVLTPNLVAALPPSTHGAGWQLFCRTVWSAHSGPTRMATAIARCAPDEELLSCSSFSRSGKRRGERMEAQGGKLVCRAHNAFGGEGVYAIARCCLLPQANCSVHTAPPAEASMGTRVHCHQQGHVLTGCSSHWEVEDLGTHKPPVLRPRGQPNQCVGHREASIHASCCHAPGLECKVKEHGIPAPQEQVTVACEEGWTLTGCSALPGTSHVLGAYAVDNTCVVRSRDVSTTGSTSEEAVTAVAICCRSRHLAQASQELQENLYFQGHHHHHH
assay.notes: biochemical
pIC50: −log10 of the molar value.
Label rule, in plain words: pIC50 of 8 and up is yes, under 8 is no.

These solved cases illustrate the format of a correct answer.
>>> answer_label("Cc1cnc(N[C@H]2CC[C@H](Nc3ccc(-n4cccc(C)c4=O)cn3)C2)cn1 [Example 44]")
"yes"
>>> answer_label("Cn1ccc2nc(N[C@H]3CC[C@H](Nc4ccc(-n5ccccc5=O)cn4)C3)cnc21 [Example 7]")
"no"
>>> answer_label("O=c1ccccn1-c1ccc(N[C@H]2CC[C@H](Nc3cnc(Cl)cn3)C2)nc1 [Example 3]")
"no"
>>> answer_label("Cc1cnc(N[C@H]2CC[C@H](Nc3ccc(-n4nc(Cl)ccc4=O)cn3)C2)cn1 [Example 233]")
"no"
>>> answer_label("N#Cc1ccc(=O)n(-c2ccc(N[C@H]3CC[C@H](Nc4cnc(OC(F)F)cn4)C3)nc2)c1 [Example 89]")
"no"

Input: Does pIC50 meet or surpass 8 for Cc1cnc(N[C@H]2CC[C@H](Nc3ccc(-n4c(=O)n(C)c5cc(C#N)cnc54)cn3)C2)cn1 [Example 218] ?
Output: yes

Input: Consider next the molecule O=c1[nH]c2ccccc2n1-c1ccc(N[C@H]2CC[C@H](Nc3cnc(Cl)cn3)C2)nc1 [Example 31] in the same way.
Output: yes

Input: Next up: COc1cccn(-c2ccc(N[C@H]3CC[C@H](Nc4cnc(C)cn4)C3)nc2)c1=O [Example 36]
Output: yes

Input: Thanks! And Cc1cnc(N[C@H]2CC[C@H](Nc3ccc(-n4cccc(C#N)c4=O)cn3)C2)cn1 [Example 103] ?
Output: yes

Input: Check CN1CC(=O)N(c2ccc(N[C@H]3CC[C@H](Nc4cnc(Cl)cn4)C3)nc2)C1=O [Example 100] too.
Output: no

Input: And what about the molecule Cc1ncc(N[C@H]2CC[C@H](Nc3ccc(-n4cc(C(=O)O)ccc4=O)cn3)C2)nc1C [Example 14] ?
Output: no

Input: Same question, Cc1cnc(N[C@H]2CC[C@H](Nc3ccc(-n4cc(Cl)ccc4=O)cn3)C2)cn1 [Example 43] this time
Output: no

Input: Next molecule up: CCSc1cnc(N[C@H]2CC[C@H](Nc3ccc(-n4ccccc4=O)cn3)C2)cn1 [Example 163]
Output: no

---

assay.target: PCSK9 (Homo sapiens, UniProt Q8NBP7, G670E/V474I)
assay.notes: biochemical
pIC50: −log10 of the molar value.
Category key, based on recorded pIC50: lower range: < 7; middle range: ≥ 7 and < 8; upper range: ≥ 8

Input: Lab log: Cc1cnc(N[C@H]2CC[C@H](Nc3ccc(-n4cccc(Cl)c4=O)cn3)C2)cn1 [Example 47] — assign pIC50 category
Output: upper range

Input: Moving on to COc1cccn(-c2ccc(N[C@H]3CC[C@H](Nc4cnc(C5CC5)cn4)C3)nc2)c1=O [Example 106]
Output: upper range

Input: Same question, COc1cccc2ncc(N[C@H]3CC[C@H](Nc4ccc(-n5ccccc5=O)cn4)C3)nc12 [Example 144] this time
Output: lower range

---

I'd appreciate it if you could supply pIC50 values for the items below.
assay.target: potassium ion channel hERG (human Ether-á-go-go-Related Gene) (Homo sapiens)
Construct: expressed in transfected cells; host or cells: Chinese hamster ovary K1 (CHO)
Sequence (Q12809 whole entry): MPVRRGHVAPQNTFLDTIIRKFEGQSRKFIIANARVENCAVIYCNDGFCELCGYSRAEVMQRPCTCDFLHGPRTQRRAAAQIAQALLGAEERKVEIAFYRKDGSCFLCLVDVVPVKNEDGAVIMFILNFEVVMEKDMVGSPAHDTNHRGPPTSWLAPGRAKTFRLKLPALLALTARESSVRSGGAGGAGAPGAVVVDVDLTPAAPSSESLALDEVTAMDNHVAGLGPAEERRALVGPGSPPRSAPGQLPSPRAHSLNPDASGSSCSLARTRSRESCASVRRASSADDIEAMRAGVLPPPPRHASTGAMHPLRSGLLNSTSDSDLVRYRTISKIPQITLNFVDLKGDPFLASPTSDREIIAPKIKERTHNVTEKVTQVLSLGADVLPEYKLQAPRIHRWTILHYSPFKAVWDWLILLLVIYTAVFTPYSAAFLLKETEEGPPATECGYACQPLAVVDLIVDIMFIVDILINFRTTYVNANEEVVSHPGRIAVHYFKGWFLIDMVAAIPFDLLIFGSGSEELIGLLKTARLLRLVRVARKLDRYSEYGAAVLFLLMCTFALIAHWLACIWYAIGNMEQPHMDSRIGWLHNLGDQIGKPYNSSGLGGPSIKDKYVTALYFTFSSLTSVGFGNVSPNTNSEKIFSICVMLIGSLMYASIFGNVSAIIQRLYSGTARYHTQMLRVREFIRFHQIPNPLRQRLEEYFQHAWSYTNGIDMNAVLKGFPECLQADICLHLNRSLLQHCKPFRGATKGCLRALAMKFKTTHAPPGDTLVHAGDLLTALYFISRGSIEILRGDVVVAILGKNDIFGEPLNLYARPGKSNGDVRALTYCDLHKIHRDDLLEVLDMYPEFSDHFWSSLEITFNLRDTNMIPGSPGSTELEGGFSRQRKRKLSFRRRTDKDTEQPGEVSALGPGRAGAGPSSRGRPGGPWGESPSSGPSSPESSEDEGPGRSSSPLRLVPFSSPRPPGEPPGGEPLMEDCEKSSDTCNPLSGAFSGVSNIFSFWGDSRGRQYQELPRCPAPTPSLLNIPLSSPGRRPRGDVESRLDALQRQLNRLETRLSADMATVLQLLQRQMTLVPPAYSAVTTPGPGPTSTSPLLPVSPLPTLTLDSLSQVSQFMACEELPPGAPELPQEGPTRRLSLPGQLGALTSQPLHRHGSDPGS
assay.notes: Assay 5 - hERG assay (SyncroPatch 384PE patch clamp, CHO cells)
Type: cell-based
stated.conditions: geometric mean; CHO cells over-expressing hERG; read-out: Assay 5 (hERG Hu CHO IF EPh CR-Syncro) GMean IC50
Numbers only, as −log10 of the molar value.

>>> measured("N#Cc1cnc(N[C@H]2CC[C@H](Nc3ccc(-n4ccccc4=O)cn3)C2)cn1")
4.73
>>> measured("O=c1ccc(Cl)cn1-c1ccc(N[C@H]2CC[C@H](Nc3cnc(Cl)cn3)C2)nc1")
4.95
>>> measured("O=c1c(Cl)cccn1-c1ccc(N[C@H]2CC[C@H](Nc3cnc(OC(F)F)cn3)C2)nc1")
5.25
>>> measured("Cc1ncc(N[C@H]2CC[C@H](Nc3ccc(-n4c(=O)n(C)c5cccnc54)cn3)C2)nc1C")
4.48
>>> measured("Cc1nc(N[C@H]2CC[C@H](Nc3ccc(-n4ccccc4=O)cn3)C2)cnc1OC(F)F")
5.02
>>> measured("Cc1cnc(N[C@H]2CC[C@H](Nc3ccc(-n4cccc(C(F)(F)F)c4=O)cn3)C2)cn1")
4.78
>>> measured("Cc1cccn(-c2ccc(N[C@H]3CC[C@H](Nc4cnc(OC(F)F)cn4)C3)nc2)c1=O")
5.16
>>> measured("O=c1ccc2cccnc2n1-c1ccc(N[C@H]2CC[C@H](Nc3cnc(OC(F)F)cn3)C2)nc1")
4.74
>>> measured("N#Cc1cccn(-c2ccc(N[C@H]3CC[C@H](Nc4cnc(OC(F)F)cn4)C3)nc2)c1=O")
4.93

Input: # query: pIC50 of entry Cc1cnc(N[C@H]2CC[C@H](Nc3ccc(-n4c(=O)[nH]c5ccccc54)cn3)C2)cn1
Output: 4.48
